# minimum inhibitory concentration per entry
Tested on: Pasteurella multocida
Experiment: minimum inhibitory concentration (MIC)
Details: isolate (source animal id): 125

Consider the worked cases shown below.
compound: CN1C[C@@H]2C[C@H]1CN2c1cc2c(cc1F)c(=O)c(C(=O)O)cn2C1CC1 [Danofloxacin]
minimum inhibitory concentration: > 1 µg/mL

compound: CC[C@H]1OC(=O)C[C@@H](O)[C@H](C)[C@@H](O[C@@H]2O[C@H](C)[C@@H](O[C@H]3C[C@@](C)(O)[C@@H](O)[C@H](C)O3)[C@H](N(C)C)[C@H]2O)[C@@H](CC=O)C[C@@H](C)C(=O)/C=C/C(C)=C/[C@@H]1CO[C@@H]1O[C@H](C)[C@@H](O)[C@@H](OC)[C@H]1OC [Tylosin]
minimum inhibitory concentration: > 32 µg/mL

compound: CCC[C@@H]1C[C@@H](C(=O)N[C@@H]([C@H]2O[C@H](SC)[C@H](O)[C@@H](O)[C@H]2O)[C@H](C)Cl)N(C)C1 [Clindamycin]
minimum inhibitory concentration: > 16 µg/mL

Now consider the entry below.
Reported minimum inhibitory concentration (Pasteurella multocida) for entry CC1(C)S[C@@H]2[C@H](NC(=O)Cc3ccccc3)C(=O)N2[C@H]1C(=O)O [Penicillin] is 0.25 µg/mL

----------
Tested on: Enterococcus spp.
Test: minimum inhibitory concentration (MIC)
Conditions: isolate (source animal id): 88
# minimum inhibitory concentration per entry
// return numeric value only (unit: µg/mL, not printed)

Consider the worked cases shown below.
compound: NC[C@@H]1O[C@H](O[C@H]2[C@@H](O)[C@H](O[C@@H]3[C@@H](O)[C@H](N)C[C@H](N)[C@H]3O[C@H]3O[C@H](CN)[C@@H](O)[C@H](O)[C@H]3N)O[C@@H]2CO)[C@H](N)[C@@H](O)[C@@H]1O [Neomycin]
tgt: Enterococcus spp.
minimum inhibitory concentration / µg/mL: 8
//
compound: CC[C@H]1OC(=O)C[C@@H](O)[C@H](C)[C@@H](O[C@@H]2O[C@H](C)[C@@H](O)[C@H](N(C)C)[C@H]2O)[C@@H](CCN2CCCCC2)C[C@@H](C)C(=O)/C=C/C(C)=C/[C@@H]1CN1CCCCC1 [Tildipirosin]
tgt: Enterococcus spp.
minimum inhibitory concentration / µg/mL: 8
//
compound: CCN1CCN(c2cc3c(cc2F)c(=O)c(C(=O)O)cn3C2CC2)CC1 [Enrofloxacin]
tgt: Enterococcus spp.
minimum inhibitory concentration / µg/mL: 0.25

Now consider the entry below.
minimum inhibitory concentration reported for this compound C=C[C@]1(C)C[C@@H](OC(=O)CSCCN(CC)CC)[C@]2(C)[C@H](C)CC[C@]3(CCC(=O)[C@H]32)[C@@H](C)[C@@H]1O [Tiamulin] : 2

----------
# minimum inhibitory concentration per entry
Test system: Histophilus somni
Assay: minimum inhibitory concentration (MIC)
Conditions: isolate (source animal id): 265
// return numeric value only (unit: µg/mL, not printed)

smiles record: CC1(C)S[C@@H]2[C@H](NC(=O)[C@H](N)c3ccccc3)C(=O)N2[C@H]1C(=O)O
minimum inhibitory concentration [µg/mL]: 4

minimum inhibitory concentration reported for this compound `C=C[C@]1(C)C[C@@H](OC(=O)CSCCN(CC)CC)[C@]2(C)[C@H](C)CC[C@]3(CCC(=O)[C@H]32)[C@@H](C)[C@@H]1O` : 1

The reported measurements were obtained from the supplement of paper PMC8612539.
